- TARGET_OF_ASSAY: Broad substrate specificity ATP-binding cassette transporter ABCG2 (Homo sapiens, UniProt Q9UNQ0)
- Sequence (Q9UNQ0 whole entry): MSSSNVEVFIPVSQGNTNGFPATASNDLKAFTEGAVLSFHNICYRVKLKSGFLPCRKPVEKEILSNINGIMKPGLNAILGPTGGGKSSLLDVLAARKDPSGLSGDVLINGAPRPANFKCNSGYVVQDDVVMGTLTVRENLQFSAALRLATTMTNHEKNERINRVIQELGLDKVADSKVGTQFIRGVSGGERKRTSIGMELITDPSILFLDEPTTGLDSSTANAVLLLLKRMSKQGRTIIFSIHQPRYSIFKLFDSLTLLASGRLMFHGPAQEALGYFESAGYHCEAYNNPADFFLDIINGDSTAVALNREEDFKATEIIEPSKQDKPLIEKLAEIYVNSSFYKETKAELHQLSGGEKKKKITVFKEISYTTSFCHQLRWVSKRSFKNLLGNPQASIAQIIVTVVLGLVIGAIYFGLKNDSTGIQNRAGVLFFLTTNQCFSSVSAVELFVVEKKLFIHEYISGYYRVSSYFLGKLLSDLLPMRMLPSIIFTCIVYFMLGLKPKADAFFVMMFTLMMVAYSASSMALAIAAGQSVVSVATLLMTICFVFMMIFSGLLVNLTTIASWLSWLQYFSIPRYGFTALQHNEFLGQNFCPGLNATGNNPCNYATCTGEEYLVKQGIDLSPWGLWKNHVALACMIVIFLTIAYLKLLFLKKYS
- METHOD_DESCRIPTION: Inhibition of ABCG2-mediated mitoxantrone efflux in HEK293 cells by flow cytometry
- Type: cell-based
MEASUREMENT_NAME: pIC50
Lab note — pIC50 values are minus log10 of concentrations in M.

Guide cases for pIC50, answers given:
[[record]]
input_smiles = "COc1ccc(CCNC(=O)c2cc(=O)c3c(OCCc4ccc(OC)c(OC)c4)cccc3o2)cc1OC"
observed_result = 6.33

[[record]]
input_smiles = "COc1ccc2[nH]cc(CCNC(=O)c3cc(=O)c4c(OCc5ccc(Br)cc5)cccc4o3)c2c1"
observed_result = 6.96

[[record]]
input_smiles = "COc1ccc2[nH]cc(CCNC(=O)c3cc(=O)c4c(OCc5ccccc5)cccc4o3)c2c1"
observed_result = 6.74


With those in mind, consider the next compound.
Query :: Quote pIC50 reported for COc1ccc2[nH]cc(CCNC(=O)c3cc(=O)c4c(OCc5ccc(C)cc5)cccc4o3)c2c1 please.
Result :: 6.70
